Numbers sourced from patent US8188059B2.

As shown below, each of these substances has a reported % change in SGLT2 expression relative to saline value.
System: rat SGLT2 mRNA
RUN DESCRIPTION: Rat SGLT2 mRNA levels in kidney, 1-10-1 and 1-10-2 MOE gapmers, Sprague-Dawley rats (Example 13, Table 63)
Format: in vivo
TEST SETTINGS: 150 nmol/kg i.p. twice per week for three weeks
Strand notation (5' to 3'): a small letter for the sugar, then the base; units joined by * are phosphorothioate-linked, units joined directly phosphodiester-linked; [ ] holds rarer units or linkages, { } end groups; capitals alone tell only the bases. e = 2'-O-(2-methoxyethyl) (MOE); [5mC] = 5-methylcytosine; d = 2'-deoxy (DNA)
Numbers only here, please. The scale is %.

Lab note: substance ISIS 382677: SGLT2; GGCATGAGCTTCA 1-10-2 MOE (antisense eG*dG*d[5mC]*dA*dT*dG*dA*dG*d[5mC]*dT*dT*e[5mC]*eA) tested on rat SGLT2 mRNA; recorded % change in SGLT2 expression relative to saline was −60

Lab note: substance ISIS 382675 (antisense eT*dA*dG*d[5mC]*d[5mC]*dA*d[5mC]*d[5mC]*dA*dA*d[5mC]*eT*eG) tested on rat SGLT2 mRNA; recorded % change in SGLT2 expression relative to saline was −65

Lab note: substance ISIS 379692: SGLT2; 1-10-1 MOE gapmer (antisense eT*dG*dT*dT*d[5mC]*d[5mC]*dA*dG*d[5mC]*d[5mC]*d[5mC]*eA) tested on rat SGLT2 mRNA; recorded % change in SGLT2 expression relative to saline was −85

Lab note: substance ISIS 370717: SGLT2; TAGCCACCAACT 1-10-1 MOE gapmer, phosphorothioate (sugars from the 5' end e1 d10 e1, all phosphorothioate, methylation of C not given here) tested on rat SGLT2 mRNA; recorded % change in SGLT2 expression relative to saline was −70

Lab note: substance ISIS 379699: SGLT2; GGCATGAGCTTC 1-10-1 MOE (antisense eG*dG*d[5mC]*dA*dT*dG*dA*dG*d[5mC]*dT*dT*e[5mC]) tested on rat SGLT2 mRNA; recorded % change in SGLT2 expression relative to saline was −75

###

As shown below, each of these substances has a reported % PTEN mRNA levels in Liver value.
System: PTEN mRNA
RUN DESCRIPTION: PTEN mRNA levels in liver, kidney and fat, Balb/c mice, single 8 μmol/kg i.p. (Example 6, Table 48)
Type: in vivo, mouse
TEST SETTINGS: 8 μmol/kg single i.p., 72 h, saline = 100
Strand notation (5' to 3'): a small letter for the sugar, then the base; units joined by * are phosphorothioate-linked, units joined directly phosphodiester-linked; [ ] holds rarer units or linkages, { } end groups; capitals alone tell only the bases. e = 2'-O-(2-methoxyethyl) (MOE); l = locked nucleic acid (LNA); [5mC] = 5-methylcytosine; d = 2'-deoxy (DNA)
Numbers only here, please. The scale is %.

The substance listed as 392061 (antisense l[5mC]*lT*dA*dG*dC*dC*dT*dC*dT*dG*dG*dA*lT*lT) [compound 392061] has a reported % PTEN mRNA levels in Liver of 24

The substance listed as 391172 (antisense lC*lT*dA*dG*dC*dC*dT*dC*dT*dG*dG*dA*lT*lT*lT) [compound 391172] has a reported % PTEN mRNA levels in Liver of 18

The substance listed as 141923 (antisense CCTTCCCTGAAGGTTCCTCC; sugars from the 5' end e5 d10 e5, all phosphorothioate, methylation of C not given here) [compound 141923] has a reported % PTEN mRNA levels in Liver of 102

The substance listed as 384073 (antisense lG*lC*lT*dA*dG*d[5mC]*d[5mC]*dT*d[5mC]*dT*dG*dG*dA*lT*lT*lT) [compound 384073] has a reported % PTEN mRNA levels in Liver of 24

###

Tested on: PCSK9 mRNA
Format: cell-based, human
TEST SETTINGS: Hep3B cells, 100 nM, relative to untreated control cells; 0 = no reduction observed
Strand notation (5' to 3'): a small letter for the sugar, then the base; units joined by * are phosphorothioate-linked, units joined directly phosphodiester-linked; [ ] holds rarer units or linkages, { } end groups; capitals alone tell only the bases. e = 2'-O-(2-methoxyethyl) (MOE); [5mC] = 5-methylcytosine; d = 2'-deoxy (DNA)
EXPERIMENTAL ENDPOINT: % Inhib (PCSK9 mRNA) (%)
Numbers only here, please. The scale is %.

Examples with answers:
SUBSTANCE	QUANTITATIVE READOUT
400306 (antisense e[5mC]*eT*dG*dT*d[5mC]*dA*d[5mC]*dA*d[5mC]*dT*dT*dG*e[5mC]*eT) [compound 400306]	40
400341 (eG*e[5mC]*dT*dG*dG*dT*d[5mC]*d[5mC]*dT*d[5mC]*dA*dG*eG*eG; antisense) [compound 400341]	0
400301 (antisense e[5mC]*eG*d[5mC]*dT*d[5mC]*d[5mC]*dA*dG*dG*dT*dT*d[5mC]*e[5mC]*eA) [compound 400301]	27
400321 (eT*e[5mC]*d[5mC]*dG*dA*dA*dT*dA*dA*dA*d[5mC]*dT*e[5mC]*e[5mC]; antisense) [compound 400321]	0
400309 (e[5mC]*e[5mC]*d[5mC]*dG*dG*d[5mC]*d[5mC]*dG*d[5mC]*dT*dG*dA*e[5mC]*e[5mC]; antisense) [compound 400309]	44

The substance listed as 400316 (eT*eA*dT*dG*dA*dG*dG*dG*dT*dG*d[5mC]*d[5mC]*eG*e[5mC]; antisense) [compound 400316] has a reported % Inhib (PCSK9 mRNA) of 8

The substance listed as 400330 (e[5mC]*e[5mC]*dA*d[5mC]*dG*dT*dG*dG*dG*d[5mC]*dA*dG*e[5mC]*eA; antisense) [compound 400330] has a reported % Inhib (PCSK9 mRNA) of 43

The substance listed as 400312 (e[5mC]*eA*dT*d[5mC]*d[5mC]*d[5mC]*dG*dG*d[5mC]*d[5mC]*dG*d[5mC]*eT*eG; antisense) [compound 400312] has a reported % Inhib (PCSK9 mRNA) of 28

###

Tested on: PTP1B mRNA
RUN DESCRIPTION: Dose response for human PTP1B in HuVEC cells, Primer Probe Set 198 (Example 25, Table 86)
Assay type: cell-based
TEST SETTINGS: PPS 198, 10.0 nM
Strand notation (5' to 3'): a small letter for the sugar, then the base; units joined by * are phosphorothioate-linked, units joined directly phosphodiester-linked; [ ] holds rarer units or linkages, { } end groups; capitals alone tell only the bases. e = 2'-O-(2-methoxyethyl) (MOE); [5mC] = 5-methylcytosine; d = 2'-deoxy (DNA)
EXPERIMENTAL ENDPOINT: % Inhibition of PTP1B mRNA (%)
Numbers only here, please. The scale is %.

Examples with answers:
SUBSTANCE	ASSAYED TARGET	UNITS	% Inhibition of PTP1B mRNA
399301 (antisense eG*eT*dG*dT*dG*d[5mC]*dA*d[5mC]*dA*d[5mC]*dA*dG*e[5mC]*eT) [compound 399301]	PTP1B mRNA	%	91
399132 (antisense eG*eG*dG*d[5mC]*dT*dG*dA*dG*dT*dG*dA*d[5mC]*e[5mC]*e[5mC]) [compound 399132]	PTP1B mRNA	%	75

The substance listed as 399276 (antisense eG*eA*dG*dG*dT*dA*dT*d[5mC]*d[5mC]*d[5mC]*dA*dT*e[5mC]*eT) [compound 399276] has a reported % Inhibition of PTP1B mRNA of 61

The substance listed as 399173 (antisense eA*eT*dG*d[5mC]*dT*dA*dG*dT*dG*d[5mC]*dA*d[5mC]*eT*eA) [compound 399173] has a reported % Inhibition of PTP1B mRNA of 63

The substance listed as 399315 (antisense eG*eG*d[5mC]*dA*dA*d[5mC]*dT*dT*d[5mC]*dA*dA*d[5mC]*e[5mC]*eT) [compound 399315] has a reported % Inhibition of PTP1B mRNA of 68

The substance listed as 398112 (antisense e[5mC]*eA*dG*d[5mC]*d[5mC]*dT*dG*dG*d[5mC]*dA*d[5mC]*d[5mC]*eT*eA) [compound 398112] has a reported % Inhibition of PTP1B mRNA of 73

The substance listed as 399113 (antisense eG*eT*dT*dA*dG*dG*d[5mC]*dA*dA*dA*dG*dG*eG*e[5mC]) [compound 399113] has a reported % Inhibition of PTP1B mRNA of 72

The substance listed as 399208 (antisense eA*eG*d[5mC]*dT*d[5mC]*dG*d[5mC]*dT*dA*d[5mC]*d[5mC]*dT*e[5mC]*eT) [compound 399208] has a reported % Inhibition of PTP1B mRNA of 86

The substance listed as 399096 (antisense eT*eG*d[5mC]*dT*d[5mC]*dG*dA*dA*d[5mC]*dT*d[5mC]*d[5mC]*eT*eT) [compound 399096] has a reported % Inhibition of PTP1B mRNA of 78

The substance listed as 398120 (antisense eG*eT*dT*d[5mC]*dA*dA*dG*d[5mC]*dG*dG*d[5mC]*d[5mC]*eT*eA) [compound 398120] has a reported % Inhibition of PTP1B mRNA of 80

The substance listed as 398173 (antisense e[5mC]*dA*dG*d[5mC]*d[5mC]*dT*dG*dG*dG*d[5mC]*dA*e[5mC]) [compound 398173] has a reported % Inhibition of PTP1B mRNA of 80

The substance listed as 399102 (antisense eG*eA*dA*dG*dT*d[5mC]*dA*d[5mC]*dT*dG*dG*d[5mC]*eT*eT) [compound 399102] has a reported % Inhibition of PTP1B mRNA of 62

The substance listed as 398105 (antisense eT*eG*d[5mC]*dA*d[5mC]*dA*dG*dG*d[5mC]*dA*dG*dG*eT*eT) [compound 398105] has a reported % Inhibition of PTP1B mRNA of 79
